molecular target: TRPV4 (Homo sapiens); test: TRPV4-mediated calcium influx in N2a cells with targeted expression of human TRPV4; format: cell-based; set-up: expressed in transfected cells; host or cells: N2a cells; conditions: 2.5 μM inhibitor, pre-incubation 10 min; TRPV4 activated with 10 nM GSK101
Sequence (Q9HBA0 whole entry): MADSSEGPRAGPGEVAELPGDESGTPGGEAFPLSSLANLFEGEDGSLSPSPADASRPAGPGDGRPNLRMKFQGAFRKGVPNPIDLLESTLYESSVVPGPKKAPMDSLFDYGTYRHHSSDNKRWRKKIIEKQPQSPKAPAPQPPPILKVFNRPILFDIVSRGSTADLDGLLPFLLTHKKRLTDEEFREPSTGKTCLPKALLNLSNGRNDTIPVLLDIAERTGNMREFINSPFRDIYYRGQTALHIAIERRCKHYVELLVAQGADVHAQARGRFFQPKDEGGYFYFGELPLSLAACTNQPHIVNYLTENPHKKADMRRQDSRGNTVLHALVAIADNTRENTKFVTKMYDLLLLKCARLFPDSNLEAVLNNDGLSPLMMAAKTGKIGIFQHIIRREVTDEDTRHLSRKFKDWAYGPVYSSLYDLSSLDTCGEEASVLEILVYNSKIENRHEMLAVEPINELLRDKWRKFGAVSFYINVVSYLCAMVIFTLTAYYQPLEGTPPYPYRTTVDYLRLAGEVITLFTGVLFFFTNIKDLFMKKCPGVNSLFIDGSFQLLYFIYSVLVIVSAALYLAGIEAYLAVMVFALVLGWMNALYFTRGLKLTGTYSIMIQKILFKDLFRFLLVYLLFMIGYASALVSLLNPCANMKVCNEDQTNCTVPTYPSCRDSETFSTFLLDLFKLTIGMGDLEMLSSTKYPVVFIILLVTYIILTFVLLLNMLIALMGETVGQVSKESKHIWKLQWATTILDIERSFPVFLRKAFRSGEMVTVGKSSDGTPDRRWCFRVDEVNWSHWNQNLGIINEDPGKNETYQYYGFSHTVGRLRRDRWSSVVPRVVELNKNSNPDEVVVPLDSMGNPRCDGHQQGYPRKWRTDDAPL
Measured Metric: inhibition of TRPV4-mediated calcium influx (peak calcium concentration in the cells)

1) CCN(CCc1ccc(Nc2nc(-c3cccnc3)cs2)cc1)Cc1ccccc1 = most potent
2) CN(CCc1ccc(Nc2nc(-c3ccccc3)cs2)cc1)Cc1ccccc1 = most potent
